# assayed.target: T1, GST-MINT1 PDZ domain 2 (Mus musculus (Mouse)), B2RUJ5
# T1 chain: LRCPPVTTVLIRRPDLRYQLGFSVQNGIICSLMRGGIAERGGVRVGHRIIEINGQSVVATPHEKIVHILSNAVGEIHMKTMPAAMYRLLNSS
# run.description: G' assay; further: key of the grades not given here
Exercise: state measured Classification for each of the binders provided.
Record the value in A450 class, omitting the unit from your answer.

Task: Answer with the recorded Classification for the binder listed here: RIAYSLLGLKDQVNTVGIPI (modifications not checked) [ephrin A2]
Result: 1

Task: Check the records and state Classification for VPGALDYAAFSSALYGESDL (modifications not checked) [a-actinin 2]
Result: 1

Task: Please indicate Classification recorded for VHDAESSDEDGYDWGPATDL (modifications not checked) [zona occludens 3 (ZO-3) PL peptide]
Result: 2

Task: Supply Classification value. Item: KTMPAAMFRLLTGQETPLYI (modifications not checked) [MINT-2]
Result: 1

Task: Look up Classification of DTLLLTENEGDKTEEQVSYV (modifications not checked) [serotonin receptor 5HT-2B] and report it.
Result: 1

Task: Give the measured Classification for INSVGSTASSSQPLLVHDDV (modifications not checked) [c-kit receptor]
Result: 1

Task: Input PPATPSPRLALPAHHNATRL (modifications not checked) [Na+/Pi cotransporter 2] , output reported Classification.
Result: 1

Task: Look up and report measured Classification for this entry: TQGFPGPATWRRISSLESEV (modifications not checked) [NMDA Glutamate Receptor 2C (cysteine-free)]
Result: 1

Task: Fill in reported Classification for this entry: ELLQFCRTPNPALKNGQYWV (modifications not checked) [CSPG4 (chondroitin sulfae proteoglycan 4, melanoma-associated)]
Result: 5

Task: Give a short answer stating reported Classification for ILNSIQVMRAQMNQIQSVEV (modifications not checked) [ephrin B2] .
Result: 3

Task: // Input: LNETTETQRTLLNGDLQTSI (modifications not checked) [SSTR2 (somatostatin recepor 2)] . Output its Classification only.
Result: 1

Task: Specify measured Classification for NGGFAVDKSDTISFTQTSQF (modifications not checked) [glutamate transporter 3] .
Result: 1

Task: For the binder AWDDSARAAGGQGLHVTAL (modifications not checked) [LPAP] , give its reported Classification.
Result: 1

Task: Hello, please tell me recorded Classification for this one: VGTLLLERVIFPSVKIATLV (modifications not checked) [AdenoE4 typ9]
Result: 2

Task: Annotate the binder SYPTPRPYPKPAPSSGKDYV (modifications not checked) [claudin 1] with its measured Classification.
Result: 1

Task: Fill in reported Classification for this entry: KTMPAATYRLLTGQEQPVYL (modifications not checked) [MINT-3]
Result: 2

Task: Please supply the value of reported Classification for the item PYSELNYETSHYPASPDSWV (modifications not checked) [catenin - delta 2]
Result: 3

Task: Let me know recorded Classification for DFRPSFKHILFRRARRGFRQ (modifications not checked) [alpha-2C Adrenergic receptor] , thanks.
Result: 3

Task: Using the record for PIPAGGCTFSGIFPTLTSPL (modifications not checked) [KIA 1481] , state its measured Classification.
Result: 3

Task: In one line, give reported Classification of the entry KKGTYLTDETHREVKFTSL (modifications not checked) [CD46] .
Result: 1

Task: Could you please provide reported Classification for ALVLIAFCIIRRRPSAYQAL (modifications not checked) [CD68] ? Thanks!
Result: 2

Task: Return value of Classification for input DSDPENEPFDEDQHTQITKV (modifications not checked) [PTEN] , no commentary.
Result: 1

Origin of measurements: patent US20050282743A1
